- target.system: human orexin-1 receptor (Homo sapiens (Human))
- test.name: In vitro assay: intracellular calcium measurements (FLIPR), antagonistic activity
- Format: cell-based
- measurement.conditions: CHO cells, 3 nM orexin-A, compound incubation 120 min; marked values are geometric means of n = 2-6; read-out: IC50 OX1
Each entry below carries its recorded IC50.
measured.property: IC50 (nM)

[[record]]
molecule = "COc1cccc(OC)c1C1CC(C)C(=O)N1Cc1cccc(OC(C)C)c1 (centres unmarked)"
measured_property = "IC50"
recorded_result = 101

[[record]]
molecule = "COc1ccc(Cl)c(OC)c1C1CCCC(=O)N1Cc1cccc(-c2csc(C)n2)c1 (centres unmarked)"
measured_property = "IC50"
recorded_result = 42

[[record]]
molecule = "COc1cccc(F)c1[C@@H]1C[C@H](F)C(=O)N1Cc1ccc(OC(F)(F)F)cc1 (racemic)"
measured_property = "IC50"
recorded_result = 1700

[[record]]
molecule = "COc1cccc(OC)c1C1CCCCC(=O)N1Cc1cccc(-c2cncs2)c1 (centres unmarked)"
measured_property = "IC50"
recorded_result = 7

[[record]]
molecule = "COc1cccc(OC)c1C1CC(C)C(=O)N1Cc1ccnc(-c2ncc(C)s2)c1 (centres unmarked)"
measured_property = "IC50"
recorded_result = 16

[[record]]
molecule = "CCOc1cccc(F)c1C1CC(C)C(=O)N1Cc1cnc2ccccc2c1 (centres unmarked)"
measured_property = "IC50"
recorded_result = 1640

[[record]]
molecule = "COc1cccc(OC)c1C1CCCC(=O)N1Cc1cnc(-c2ccccc2)s1 (centres unmarked)"
measured_property = "IC50"
recorded_result = 951

[[record]]
molecule = "O=C1CCC(c2ccccc2-c2ccccc2)N1Cc1csc(-c2ccccc2)n1 (centres unmarked)"
measured_property = "IC50"
recorded_result = 825


----------
- target.system: human orexin-2 receptor (Homo sapiens (Human), UniProt O43614)
- Sequence (O43614 whole entry): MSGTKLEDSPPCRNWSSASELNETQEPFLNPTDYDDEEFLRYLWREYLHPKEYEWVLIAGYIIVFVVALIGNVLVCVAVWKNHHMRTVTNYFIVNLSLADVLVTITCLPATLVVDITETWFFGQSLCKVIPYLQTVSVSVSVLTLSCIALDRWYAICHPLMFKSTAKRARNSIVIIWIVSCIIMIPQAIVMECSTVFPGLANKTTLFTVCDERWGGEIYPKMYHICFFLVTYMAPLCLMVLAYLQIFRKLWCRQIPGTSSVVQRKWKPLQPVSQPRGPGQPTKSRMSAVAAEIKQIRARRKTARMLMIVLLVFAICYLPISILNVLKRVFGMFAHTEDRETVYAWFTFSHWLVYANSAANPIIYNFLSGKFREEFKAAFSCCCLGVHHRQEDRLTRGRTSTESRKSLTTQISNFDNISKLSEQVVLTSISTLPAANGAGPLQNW
- test.name: In vitro assay: intracellular calcium measurements (FLIPR), antagonistic activity
- Assay type: cell-based
- measurement.conditions: CHO cells, 3 nM orexin-A, compound incubation 120 min; marked values are geometric means of n = 2-6; read-out: IC50 OX2
pIC50: −log10 of the molar value.
measured.property: pIC50

[[record]]
compound = "COc1cccc(OC)c1C1CC(F)(F)C(=O)N1Cc1cccc(-c2ccccc2)c1 (stereo not shown)"
recorded_result = 7.09

[[record]]
compound = "COc1cccc(Cl)c1[C@@H]1C[C@H](F)C(=O)N1Cc1ccc(OC(F)(F)F)cc1 (racemic)"
recorded_result = 6.99

[[record]]
compound = "COc1cccc(OC)c1C1CCCC(=O)N1Cc1cncc(-c2ccccc2)c1 (stereo not shown)"
recorded_result = 6.15

[[record]]
compound = "COc1cccc(OC)c1C1CCCC(=O)N1Cc1cccc(-c2nccs2)c1 (stereo not shown)"
recorded_result = 8.40


----------
- target.system: human orexin-1 receptor (Homo sapiens (Human), UniProt O43613)
- Sequence (O43613 whole entry): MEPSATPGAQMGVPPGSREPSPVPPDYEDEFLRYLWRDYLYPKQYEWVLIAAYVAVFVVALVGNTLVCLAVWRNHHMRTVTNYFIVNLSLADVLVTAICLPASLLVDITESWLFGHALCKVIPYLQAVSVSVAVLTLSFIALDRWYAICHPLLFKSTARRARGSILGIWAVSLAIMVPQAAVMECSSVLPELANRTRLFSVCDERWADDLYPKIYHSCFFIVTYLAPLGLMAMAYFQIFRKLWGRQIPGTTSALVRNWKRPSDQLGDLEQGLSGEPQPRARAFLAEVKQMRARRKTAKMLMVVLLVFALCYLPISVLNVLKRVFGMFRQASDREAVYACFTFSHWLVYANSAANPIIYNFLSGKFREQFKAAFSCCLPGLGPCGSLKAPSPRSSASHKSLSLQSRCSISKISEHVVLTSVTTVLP
- test.name: In vitro assay: intracellular calcium measurements (FLIPR), antagonistic activity
- Format: cell-based
- measurement.conditions: CHO cells, 3 nM orexin-A, compound incubation 120 min; marked values are geometric means of n = 2-6; read-out: IC50 OX1
pIC50: −log10 of the molar value.
measured.property: pIC50

[[record]]
compound = "COc1ccc2c(c1C1CCCC(=O)N1Cc1cccc(-c3csc(C)n3)c1)OCCO2 (stereo not shown)"
target_system = "human orexin-1 receptor (Homo sapiens (Human), UniProt O43613)"
measured_property = "pIC50"
recorded_result = 8.30

[[record]]
compound = "CCOc1cccc(OC)c1C1CC(F)(F)C(=O)N1Cc1cccc(-c2ccccc2)c1 (stereo not shown)"
target_system = "human orexin-1 receptor (Homo sapiens (Human), UniProt O43613)"
measured_property = "pIC50"
recorded_result = 7.92

[[record]]
compound = "COc1cccc(OC)c1C1CCCCC(=O)N1Cc1cnc(OC(F)F)c(Cl)c1 (stereo not shown)"
target_system = "human orexin-1 receptor (Homo sapiens (Human), UniProt O43613)"
measured_property = "pIC50"
recorded_result = 6.41

[[record]]
compound = "COc1cccc(OC)c1[C@@H]1C[C@@H](O)C(=O)N1Cc1ccc2oc3ccccc3c2c1 (racemic)"
target_system = "human orexin-1 receptor (Homo sapiens (Human), UniProt O43613)"
measured_property = "pIC50"
recorded_result = 7.70

[[record]]
compound = "COc1ccnc(OC)c1C1CCCC(=O)N1Cc1ccc2oc3ccccc3c2c1 (stereo not shown)"
target_system = "human orexin-1 receptor (Homo sapiens (Human), UniProt O43613)"
measured_property = "pIC50"
recorded_result = 8.30

[[record]]
compound = "COc1cccc(C)c1[C@@H]1C[C@H](Cl)C(=O)N1Cc1ccc(OC(F)(F)F)cc1 (racemic)"
target_system = "human orexin-1 receptor (Homo sapiens (Human), UniProt O43613)"
measured_property = "pIC50"
recorded_result = 5.82

[[record]]
compound = "CCOc1cccc(F)c1[C@@H]1C[C@@H](O)C(=O)N1Cc1ccc(OC(F)(F)F)cc1 (racemic)"
target_system = "human orexin-1 receptor (Homo sapiens (Human), UniProt O43613)"
measured_property = "pIC50"
recorded_result = 5.67

[[record]]
compound = "COc1c(F)ccc(F)c1[C@@H]1C[C@@H](O)C(=O)N1Cc1ccc(OC(F)(F)F)cc1 (racemic)"
target_system = "human orexin-1 receptor (Homo sapiens (Human), UniProt O43613)"
measured_property = "pIC50"
recorded_result = 5.84

[[record]]
compound = "COc1ccc2ccccc2c1[C@@H]1C[C@@H](O)C(=O)N1Cc1ccc(OC(F)(F)F)cc1 (racemic)"
target_system = "human orexin-1 receptor (Homo sapiens (Human), UniProt O43613)"
measured_property = "pIC50"
recorded_result = 5.66

[[record]]
compound = "COc1cccc(OC)c1C1CCCC(=O)N1Cc1cccc(-n2cccn2)c1 (stereo not shown)"
target_system = "human orexin-1 receptor (Homo sapiens (Human), UniProt O43613)"
measured_property = "pIC50"
recorded_result = 7.60

[[record]]
compound = "CCc1nc2ccc(OC)c(C3CCCC(=O)N3Cc3cccc(-c4csc(C)n4)c3)c2o1 (stereo not shown)"
target_system = "human orexin-1 receptor (Homo sapiens (Human), UniProt O43613)"
measured_property = "pIC50"
recorded_result = 8.00

[[record]]
compound = "COc1cccc(OC)c1C1CC(F)(F)C(=O)N1Cc1ccc2oc3ccccc3c2c1 (stereo not shown)"
target_system = "human orexin-1 receptor (Homo sapiens (Human), UniProt O43613)"
measured_property = "pIC50"
recorded_result = 8.40

[[record]]
compound = "COc1cccc(OC)c1C1CC(C)C(=O)N1Cc1cccc(-c2ncccn2)c1 (stereo not shown)"
target_system = "human orexin-1 receptor (Homo sapiens (Human), UniProt O43613)"
measured_property = "pIC50"
recorded_result = 7.96

[[record]]
compound = "COc1cccc(OC)c1C1CC(C)C(=O)N1Cc1ccc2c(c1)c1ccccc1n2C (stereo not shown)"
target_system = "human orexin-1 receptor (Homo sapiens (Human), UniProt O43613)"
measured_property = "pIC50"
recorded_result = 7.00

[[record]]
compound = "COc1cccc(OC)c1C1CC(C)C(=O)N1Cc1cccc(OCC(F)(F)F)c1 (stereo not shown)"
target_system = "human orexin-1 receptor (Homo sapiens (Human), UniProt O43613)"
measured_property = "pIC50"
recorded_result = 6.91

[[record]]
compound = "COc1cccc(OC)c1C1CCCC(=O)N1Cc1cccc(-n2cncn2)c1 (stereo not shown)"
target_system = "human orexin-1 receptor (Homo sapiens (Human), UniProt O43613)"
measured_property = "pIC50"
recorded_result = 6.51

